This collection of values is drawn from patent US6359156B1.

tested on: Ggt; assay: In vitro assay: inhibition of mycelial growth of Ggt on minimal media agar; format: cell-based, Gaeumannomyces graminis var. tritici; settings: Gaeumannomyces graminis; 10 ppm in agar; 4-5 days at 19-20° C.; read-out: % Control of Ggt In Vitro
Param threshold (90%) applies to inhibition of growth at 10 ppm; output 1 when value >= threshold, -1 when value < threshold.

In [3]: df
Out[3]:
                            mol_smiles  class
0     CCCNC(=O)/C(=N/OC(C)(C)C)c1cccs1      1
1   CCCNC(=O)C(=NOC(C)(C)C)c1cccc(C)c1     -1
2  CCCNC(=O)/C(=N/OC(C)(CC)CC)c1ccccc1      1
3     C=CCNC(=O)C(=NOC(C)(C)C)c1ccccc1      1
4    CCCNC(=O)/C(=N\NC(C)(C)C)c1ccccc1      1
5    CCCNC(=O)/C(=N/OC(C)(C)C)c1ccccc1     -1

Textbook exercise: given the entry `CCCNC(=O)/C(=N\OC(C)(C)C)c1ccccc1` , state whether its inhibition of growth at 10 ppm is greater than or equal to 90%.
1

// inclusive: inhibition of growth at 10 ppm at least 90%? input: `CCCNC(=O)/C(=N\OC(C)(CC)CC)c1ccccc1`
1

In plain terms: is recorded inhibition of growth at 10 ppm at least 90% for `CCCNC(=O)/C(=N/NC(C)(C)C)c1ccccc1` ?
-1

Kindly determine if inhibition of growth at 10 ppm recorded for `CCCNC(=O)C(=NOC(C)(C)C)c1ccc(C)cc1` is above or exactly 90%.
-1

Answer whether inhibition of growth at 10 ppm of `CCCNC(=O)/C(=N/OC(C)(C)CC)c1ccccc1` is greater than or equal to 90%.
-1

Evaluate `C=CCNC(=O)C(=NNC(C)(C)C)c1ccccc1` : inhibition of growth at 10 ppm at minimum 90%?
1

Can `CCCNC(=O)/C(=N\OC(C)(C)CC)c1ccccc1` be said to have inhibition of growth at 10 ppm at or above 90%?
1

Can `CCCNC(=O)C(=NOC(C)(C)C)c1ccccc1F` be said to have inhibition of growth at 10 ppm at or above 90%?
-1

Answer whether inhibition of growth at 10 ppm of `CCCNC(=O)/C(=N\OC(C)(C)C)c1cccs1` is greater than or equal to 90%.
1
